Provide the recorded IC90 for the entries that follow.
Tested on: MRC-5 cells
Test: MTT cell growth inhibition assay, MRC-5
Assay type: cell-based, human
Settings: Homo sapiens, MRC5, MRC-5 normal cells, 72 h
Procedure: To assess cell viability, the MTT assay was used. HCT116, H460, CCD 841 CoN and MRC-5 cells (20,000/well and 50,000/well for cancer and normal cells, respectively) were seeded in 24-well plates, and the following UAs were added at concentrations up to 10 μM: C-2028, C-2041, C-2045 and C-2053. […] After 72 h, 3-(4, 5-dimethylthiazol-2-yl)-2,5-diphenyltetrazolium bromide (MTT; 800 μg/well) was added for 3 h, then the formazan crystals were dissolved in DMSO, and absorbance was read at 540 nm. […]
Numbers only, in µM.

Please state, for each entry, its recorded IC90.
1. Cc1ccc([N+](=O)[O-])c2c(NCCCN(C)CCCNc3ccc4ncn5c6ccccc6c(=O)c3c45)c3ccccc3nc12
2. CN(CCCNc1c2ccccc2nc2cccc([N+](=O)[O-])c12)CCCNc1ccc2ncn3c4ccccc4c(=O)c1c23
3. O=c1c2ccccc2n2cnc3ccc(NCCCN4CCN(CCCNc5c6ccccc6nc6cccc([N+](=O)[O-])c56)CC4)c1c32
4. Cc1ccc([N+](=O)[O-])c2c(NCCCN(C)CCCNc3ccc4ncn5c6ccc(O)cc6c(=O)c3c45)c3ccccc3nc12

Result:
[3.8, 2.69, 6.16, 6.13]

###

System: HCT116 cells
Assay: Cell cycle analysis (PI, flow cytometry), HCT116
Type: cell-based, human
Conditions: HCT116, IC90 doses, 24 h
measured.parameter: cells in G2/M (%)
One number for each entry, in %.

The cases that follow already have their cells in G2/M on record.
# input.smiles, value.reported
records = [
    ("CN(CCCNc1c2ccccc2nc2cccc([N+](=O)[O-])c12)CCCNc1ccc2ncn3c4ccccc4c(=O)c1c23", 45.89),
    ("Cc1ccc([N+](=O)[O-])c2c(NCCCN(C)CCCNc3ccc4ncn5c6ccccc6c(=O)c3c45)c3ccccc3nc12", 44.81),
    ("Cc1ccc([N+](=O)[O-])c2c(NCCCN(C)CCCNc3ccc4ncn5c6ccc(O)cc6c(=O)c3c45)c3ccccc3nc12", 50.18),
]

For reference, reported cells in G2/M for "O=c1c2ccccc2n2cnc3ccc(NCCCN4CCN(CCCNc5c6ccccc6nc6cccc([N+](=O)[O-])c56)CC4)c1c32" stands at 29.92

###

System: HCT116 cells
Assay: Cell cycle analysis (PI, flow cytometry), HCT116
Type: cell-based, human
Conditions: HCT116, IC90 doses, 72 h
measured.parameter: cells in G2/M
// return the numeric value with its unit appended

# input.smiles, cells in G2/M
rows = [
    ("Cc1ccc([N+](=O)[O-])c2c(NCCCN(C)CCCNc3ccc4ncn5c6ccc(O)cc6c(=O)c3c45)c3ccccc3nc12", "34.06 ± 3.35%"),
    ("CN(CCCNc1c2ccccc2nc2cccc([N+](=O)[O-])c12)CCCNc1ccc2ncn3c4ccccc4c(=O)c1c23", "21.02 ± 4.86%"),
    ("Cc1ccc([N+](=O)[O-])c2c(NCCCN(C)CCCNc3ccc4ncn5c6ccccc6c(=O)c3c45)c3ccccc3nc12", "36.32 ± 3.14%"),
]

Now look at this entry.
For reference, reported cells in G2/M for "O=c1c2ccccc2n2cnc3ccc(NCCCN4CCN(CCCNc5c6ccccc6nc6cccc([N+](=O)[O-])c56)CC4)c1c32" stands at 14.29 ± 1.52%

###

Test system: HCT116 cells
Test: Cell cycle analysis (PI, flow cytometry), HCT116
Type: cell-based, human
Details: HCT116, IC90 doses, 72 h
measured.parameter: Poli (polyploid cells) (%)
One number for each entry, in %.

The cases that follow already have their Poli (polyploid cells) on record.
# input.smiles, experimental.target, measured.parameter, value.reported
records = [
    ("O=c1c2ccccc2n2cnc3ccc(NCCCN4CCN(CCCNc5c6ccccc6nc6cccc([N+](=O)[O-])c56)CC4)c1c32", "HCT116 cells", "Poli (polyploid cells)", 4.47),
    ("CN(CCCNc1c2ccccc2nc2cccc([N+](=O)[O-])c12)CCCNc1ccc2ncn3c4ccccc4c(=O)c1c23", "HCT116 cells", "Poli (polyploid cells)", 5.11),
    ("Cc1ccc([N+](=O)[O-])c2c(NCCCN(C)CCCNc3ccc4ncn5c6ccc(O)cc6c(=O)c3c45)c3ccccc3nc12", "HCT116 cells", "Poli (polyploid cells)", 12.20),
]

Now look at this entry.
For reference, reported Poli (polyploid cells) for "Cc1ccc([N+](=O)[O-])c2c(NCCCN(C)CCCNc3ccc4ncn5c6ccccc6c(=O)c3c45)c3ccccc3nc12" stands at 11.02

###

Test system: H460 cells
Test: MTT cell growth inhibition assay, H460
Type: cell-based, human
Settings: Homo sapiens, NCI-H460, 72 h
Provide the recorded IC90 for the entries that follow.
Give bare numbers, in nM.

# input.smiles, experimental.target, unit.abbreviation, value.reported
data = [
    ("Cc1ccc([N+](=O)[O-])c2c(NCCCN(C)CCCNc3ccc4ncn5c6ccccc6c(=O)c3c45)c3ccccc3nc12", "H460 cells", "nM", 184),
]

The reported IC90 value, H460 cells, for "Cc1ccc([N+](=O)[O-])c2c(NCCCN(C)CCCNc3ccc4ncn5c6ccc(O)cc6c(=O)c3c45)c3ccccc3nc12" reads 399

###

Test system: H460 cells
Test: Cell cycle analysis (PI, flow cytometry), H460
Type: cell-based, human
Details: H460, IC90 doses, 72 h
Provide the recorded cells in Sub-G1 for the entries that follow.
Give bare numbers, in %.

The cases that follow already have their cells in Sub-G1 on record.
# input.smiles, unit.abbreviation, cells in Sub-G1
data = [
    ("Cc1ccc([N+](=O)[O-])c2c(NCCCN(C)CCCNc3ccc4ncn5c6ccc(O)cc6c(=O)c3c45)c3ccccc3nc12", "%", 18.66),
    ("Cc1ccc([N+](=O)[O-])c2c(NCCCN(C)CCCNc3ccc4ncn5c6ccccc6c(=O)c3c45)c3ccccc3nc12", "%", 22.37),
    ("CN(CCCNc1c2ccccc2nc2cccc([N+](=O)[O-])c12)CCCNc1ccc2ncn3c4ccccc4c(=O)c1c23", "%", 25.45),
]

Now look at this entry.
For reference, reported cells in Sub-G1 for "O=c1c2ccccc2n2cnc3ccc(NCCCN4CCN(CCCNc5c6ccccc6nc6cccc([N+](=O)[O-])c56)CC4)c1c32" stands at 17.43

###

Provide the recorded cells in Sub-G1 for the entries that follow.
Tested on: H460 cells
Test: Cell cycle analysis (PI, flow cytometry), H460
Type: cell-based, human
Settings: H460, IC90 doses, 24 h
Give bare numbers, in %.

The cases that follow already have their cells in Sub-G1 on record.
# molecule, value.reported
measured = [
    ("CN(CCCNc1c2ccccc2nc2cccc([N+](=O)[O-])c12)CCCNc1ccc2ncn3c4ccccc4c(=O)c1c23 [Compound C-2028]", 11.09),
    ("Cc1ccc([N+](=O)[O-])c2c(NCCCN(C)CCCNc3ccc4ncn5c6ccc(O)cc6c(=O)c3c45)c3ccccc3nc12 [Compound C-2045]", 9.84),
    ("O=c1c2ccccc2n2cnc3ccc(NCCCN4CCN(CCCNc5c6ccccc6nc6cccc([N+](=O)[O-])c56)CC4)c1c32 [Compound C-2041]", 8.43),
]

Now look at this entry.
For reference, reported cells in Sub-G1 for Cc1ccc([N+](=O)[O-])c2c(NCCCN(C)CCCNc3ccc4ncn5c6ccccc6c(=O)c3c45)c3ccccc3nc12 [Compound C-2053] stands at 6.28

###

Provide the recorded IC50 for the entries that follow.
Tested on: HCT116 cells
Assay: MTT cell growth inhibition assay, HCT116
Assay type: cell-based, human
Details: Homo sapiens, HCT-116, 72 h, HCT116, 72 h
Numbers only, in nM.

# input.smiles, experimental.target, measured.parameter, value.reported
data = [
    ("Cc1ccc([N+](=O)[O-])c2c(NCCCN(C)CCCNc3ccc4ncn5c6ccc(O)cc6c(=O)c3c45)c3ccccc3nc12", "HCT116 cells", "IC50", 59),
]

Now look at this entry.
The reported IC50 value, HCT116 cells, for "Cc1ccc([N+](=O)[O-])c2c(NCCCN(C)CCCNc3ccc4ncn5c6ccccc6c(=O)c3c45)c3ccccc3nc12" reads 48

###

Tested on: active caspase-3 in H460 cells
Test: Active caspase-3 flow cytometry, H460
Assay type: cell-based, human
Conditions: H460, IC90 doses, 120 h
measured.parameter: cells with active caspase-3 (%)
Give bare numbers, in %.

The cases that follow already have their cells with active caspase-3 on record.
# molecule, experimental.target, measured.parameter, value.reported
data = [
    ("Cc1ccc([N+](=O)[O-])c2c(NCCCN(C)CCCNc3ccc4ncn5c6ccccc6c(=O)c3c45)c3ccccc3nc12 [Compound C-2053]", "active caspase-3 in H460 cells", "cells with active caspase-3", 54.1),
    ("O=c1c2ccccc2n2cnc3ccc(NCCCN4CCN(CCCNc5c6ccccc6nc6cccc([N+](=O)[O-])c56)CC4)c1c32 [Compound C-2041]", "active caspase-3 in H460 cells", "cells with active caspase-3", 35.5),
    ("CN(CCCNc1c2ccccc2nc2cccc([N+](=O)[O-])c12)CCCNc1ccc2ncn3c4ccccc4c(=O)c1c23 [Compound C-2028]", "active caspase-3 in H460 cells", "cells with active caspase-3", 44.9),
]

Now look at this entry.
The reported cells with active caspase-3 value, active caspase-3 in H460 cells, for Cc1ccc([N+](=O)[O-])c2c(NCCCN(C)CCCNc3ccc4ncn5c6ccc(O)cc6c(=O)c3c45)c3ccccc3nc12 [Compound C-2045] reads 51.6
